System: zebrafish ABCB5 (Abcb5) multidrug transporter
Experiment Notes: qHTS for characterization and localization of zebrafish homologs of the human ABCB1 multidrug transporter: ABCB5 transfected cells
Test Conditions: CellTiter-Glo luminescence viability, 72 h; series mostly up to 46.1 µM
Records with an inconclusive call do not appear. Active and inactive are the calls of the source. Calls follow the shape of the dose curve; as a rule, active = well fitted inhibition curve with a large enough effect; inconclusive = small, poorly fitted or top-dose-only effect; inactive = no such curve, though single readings can be large or run the other way.
Valid outcomes are listed here; reply with one: true (1) for active, false (0) for inactive

## Input Check the results log: what was the call for CCN(CCCO)CCCOc1ccc2c(Nc3cc(CC(=O)Nc4cccc(F)c4)[nH]n3)ncnc2c1 ?
## Output false (0)

## Input Please share the test call associated with COc1cc2ncn(-c3cc(OCc4ccccc4C(F)(F)F)c(C(N)=O)s3)c2cc1OC .
## Output true (1)

## Input Field: outcome | Entry: CCn1nnc2c(N3CCOCC3)nc(-c3ccc(NC(=O)Nc4ccc(C(=O)N5CCN(C)CC5)cc4)cc3)nc21
## Output true (1)

## Input # outcome recorded in this test, key = Cc1cc(N)c2ccccc2[n+]1CCCCCCCCCC[n+]1c(C)cc(N)c2ccccc21
## Output true (1)

## Input Status in this test for Cc1ccc(C(=O)N(CCCN)[C@@H](c2oc3cc(Cl)ccc3c(=O)c2Cc2ccccc2)C(C)C)cc1 ?
## Output true (1)

* * *

Tested on: zebrafish ABCB5 (Abcb5) multidrug transporter
Experiment Notes: qHTS for characterization and localization of zebrafish homologs of the human ABCB1 multidrug transporter: ABCB5 transfected cells
Test Conditions: CellTiter-Glo luminescence viability, 72 h; series mostly up to 46.1 µM
Records with an inconclusive call do not appear. The source made the active and inactive calls. The call rests on the fitted dose curve; in most records, active means well fitted inhibition curve with a large enough effect; inconclusive means small, poorly fitted or top-dose-only effect; inactive means no such curve, though single readings can be large or run the other way.
Outcome field: choose from 1 (yes) = active, 0 (no) = inactive

## Input // param item: CC(C)C[C@H](NC(=O)[C@H](CCc1ccccc1)NC(=O)CN1CCOCC1)C(=O)N[C@@H](Cc1ccccc1)C(=O)N[C@@H](CC(C)C)C(=O)[C@@]1(C)CO1 ; yields the recorded call
## Output 1 (yes)

## Input State the result this test recorded for CC[C@@]1([C@@H]2O[C@@H]([C@H]3O[C@@](O)(CO)[C@H](C)C[C@@H]3C)C[C@@H]2C)CC[C@H]([C@]2(C)CC[C@]3(C[C@H](O)[C@@H](C)[C@@H]([C@@H](C)[C@@H](OC)[C@H](C)C(=O)O)O3)O2)O1 .
## Output 1 (yes)

## Input Please share the test call associated with C#CCN(Cc1cc2c(=O)n(C)c(CN3CCN(C)CC3)nc2cc1Cl)c1ccc(C(=O)NCc2cccnc2)cc1 .
## Output 0 (no)

## Input Could you please tell me the result logged for C/C=C1/NC(=O)C2CSSCCC=CC(CC(=O)NC(C(C)C)C(=O)N2)OC(=O)C(C(C)C)NC1=O (configuration not stated) in this assay?
## Output 1 (yes)

## Input Write down the call the test reported for this molecule. Item: CC1(C)CC(NC(=O)C(=O)Nc2ccc(Br)cc2)CC(C)(C)N1
## Output 0 (no)

## Input // outcome(item) with item = C=CCNC1=C2CC(C)CC(OC)C(O)C(C)/C=C(\C)C(OC(N)=O)C(OC)/C=C/C=C(\C)C(=O)NC(=CC1=O)C2=O (configuration not stated)
## Output 1 (yes)

## Input Hello, I am checking results. What call was entered for CN(C)C1CCN(C(=O)c2ccc(NC(=O)Nc3nc(N4CCOCC4)nc(N4CCOCC4)n3)cc2)CC1 ?
## Output 1 (yes)

* * *

Tested on: zebrafish ABCB5 (Abcb5) multidrug transporter
Experiment Notes: qHTS for characterization and localization of zebrafish homologs of the human ABCB1 multidrug transporter: ABCB5 transfected cells
Test Conditions: CellTiter-Glo luminescence viability, 72 h; series mostly up to 46.1 µM
Results filed as inconclusive are left out. The source made the active and inactive calls. Calls follow the shape of the dose curve; as a rule, active = well fitted inhibition curve with a large enough effect; inconclusive = small, poorly fitted or top-dose-only effect; inactive = no such curve, though single readings can be large or run the other way. Where a SMILES comes first, the peptide text is derived from it. [ ]: non-standard residue; d: D form. The star is where a group is joined. Cbz = O=C(OCc1ccccc1)*; Nva = CCC[CH](N)C(=O)O
Hi there, use one of these labels in your reply, thanks! active, inactive

## Input Assay outcome for CC[C@@H]1C(=O)N(C)c2cnc(Nc3ccc(C(=O)NC4CCN(C)CC4)cc3OC)nc2N1C1CCCC1 : what was it?
## Output active

## Input Query: recorded result category for Cc1[nH]c2ccccc2c1CCNCc1ccc(/C=C/C(=O)NO)cc1 in this test
## Output active

## Input Can you look up the reported call for CC(=O)OC1C(=O)C2(C)C(O)CC3OCC3(OC(C)=O)C2C(OC(=O)c2ccccc2)C2(O)CC(OC(=O)C(O)C(NC(=O)c3ccccc3)c3ccccc3)C(C)=C1C2(C)C (configuration not stated) for me?
## Output inactive

## Input Please share the test call associated with COc1cc(N2CCC(O)CC2)ccc1Nc1nc(Nc2ccccc2S(=O)(=O)C(C)C)c2[nH]cnc2n1 .
## Output inactive

## Input What classification did CC(=O)O[C@@H]1C[C@H](O)[C@@]23CO[C@@H](O)C1(C)[C@@H]2C[C@@H](O)[C@]1(C)[C@@H]3C(=O)[C@H](OC(C)=O)[C@@]2(C)[C@H](c3ccoc3)C[C@H]3O[C@]321 end up with in this test?
## Output active

## Input What is the recorded call for this compound in the test? C#Cc1cccc(Nc2ncnc3cc(OC)c(OCCCCCCC(=O)NO)cc23)c1
## Output active

## Input Status in this test for CN(C)CCN(C)C(=O)c1ccc(NC(=O)Nc2ccc(-c3nc(N4CCOCC4)c4ccn(CC(F)(F)F)c4n3)cc2)cc1 ?
## Output active

## Input Record lookup: outcome of this test for C[C@@]12O[C@@H](C[C@]1(O)CO)n1c3ccccc3c3c4c(c5c6ccccc6n2c5c31)CNC4=O ?
## Output active

## Input // outcome(item) with item = COc1cc2c(NC3CCN(C(C)C)CC3)nc(N3CCCN(C)CC3)nc2cc1OCCCN1CCCC1
## Output inactive

## Input Short answer needed: outcome of this test for CN(C)C/C=C/C(=O)Nc1cccc(C(=O)Nc2ccc(Nc3nccc(-c4cccnc4)n3)cc2)c1 ?
## Output active

## Input Which outcome was entered for the compound COCCn1c2c([n+](Cc3cnccn3)c1C)C(=O)c1ccccc1C2=O in this test?
## Output active

## Input # outcome recorded in this test, key = CCCCc1nc2cc(C=CC(=O)NO)ccc2n1CCN(CC)CC
## Output active

## Input Outcome logged for Cc1ccc(-c2ncn(-c3ccc(Nc4nccc(-c5cccc(N6CCOCC6)c5)n4)cc3)n2)cn1 in this assay:
## Output active

## Input Please let me know the test result on file for CC[n+]1c(-c2ccccc2)c2cc(N)ccc2c2ccc(N)cc21 .
## Output active

## Input Hi, sorry to bother you, what did the test record for CCCC(C=O)NC(=O)C(CC(C)C)NC(=O)C(CC(C)C)NC(=O)OCc1ccccc1 (stereo not drawn) (Cbz-Leu-Leu-[Nva]-aldehyde; configuration not given here) ?
## Output active

## Input What outcome does the record of this test show for COc1cc2c(NC3CCN(C(C)C)CC3)nc(N3CCCN(C)CC3)nc2cc1OCCOCCN(C)C ?
## Output inactive

## Input What did this assay record as the result for NC(=O)Nc1cc(-c2ccc(CN3CCOCC3)c(F)c2)sc1C(=O)N[C@H]1CCCNC1 ?
## Output active

Values were extracted from PubChem BioAssay AID1508633.
